Each item that follows carries a reported EC50.
biological target: Gal-4-PPAR (human PPAR LBD fused to GAL4 DNA-binding domain) (Homo sapiens (Human)); test: GAL4-PPARG LBD / UAS-luciferase transactivation assay in HEK 293T cells; assay type: cell-based; conditions: GAL4 transactivation, HEK 293T cells; NA = not active; read-out: EC50 (nM) GAL4
Sequence (P37231 238-503): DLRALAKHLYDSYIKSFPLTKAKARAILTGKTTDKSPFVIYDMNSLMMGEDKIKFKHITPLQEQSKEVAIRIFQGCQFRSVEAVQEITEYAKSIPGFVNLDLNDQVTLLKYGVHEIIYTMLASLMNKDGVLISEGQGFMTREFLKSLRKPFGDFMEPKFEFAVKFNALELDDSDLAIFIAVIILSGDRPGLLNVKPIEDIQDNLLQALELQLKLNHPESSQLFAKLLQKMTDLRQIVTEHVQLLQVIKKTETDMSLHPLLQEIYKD
Your answer is read as nM, so omit the unit and give the number.

Give its EC50 value. Item: "Cc1c(C)n(Cc2ccc(-c3ccccc3C(=O)O)cc2)c2ccc(C(=O)N[C@@H](C)c3ccnc(Br)c3)cc12"
2490

Same for Cc1c(C)n(Cc2ccc(-c3ccccc3C(=O)O)cc2)c2ccc(C(=O)N[C@H](C)C3COc4ccccc4O3)cc12 (stereo partly shown)
672

Also "Cc1c(C)n(Cc2ccc(-c3ccccc3C(=O)O)cc2)c2ccc(C(=O)NCc3ccc(C(F)(F)F)cc3F)cc12" ?
596

Continue with "Cc1ccc(F)c([C@H](C)NC(=O)c2ccc3c(c2)c(C)c(C)n3Cc2ccc(-c3ccccc3C(=O)O)cc2)c1"
251

Entry "Cc1c(C)n(Cc2ccc(-c3ccccc3C(=O)O)cc2)c2ccc(C(=O)N[C@H](C)c3ccc(C(F)(F)F)cc3C(F)(F)F)cc12" please
211

What do we get for "Cc1c(C)n(Cc2ccc(-c3ccccc3C(=O)O)cc2)c2ccc(C(=O)N[C@@H](C)c3c(Cl)cccc3Cl)cc12" ?
6060

Kindly review the next compound as well.
# lookup: EC50 of "Cc1c(C)n(Cc2ccc(-c3ccccc3C(=O)O)cc2)c2ccc(C(=O)NCc3ccc(F)cc3F)cc12"
987
